assay: yeast growth modulation, basal conditions, primary screen, YJM789 clinical isolate, OD600, 24 h (AID 1089);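 also: growth of clinical yeast isolate S. cerevisiae YJM 789 seeded 1000 cells per well; test concentration not given here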; settings: S. cerevisiae YJM789 growth, higher = more signal, called active from +8 up or from −8 down
Some compounds, each annotated with its measured z-score.
valueKind: z-score

• CO[C@H]1COC(=O)CC=C[C@H](C)[C@H](OC)COC(=O)[C@@H](C)NC(=O)CC=C[C@@H]1C = -1.77
• CCCCOC(OCCCC)C(O)CSc1ccc2ccccc2c1 (stereo not drawn) = 0.12
• CCOC(=O)[C@H](CC(C)C)NC(=O)CCC1CC(OC(=O)NCCc2ccc(F)cc2)CC2(CCCC(COC(=O)NCc3cccc(C(F)(F)F)c3)O2)O1 (stereo partly drawn) = 0.643
• CC(=O)OC[C@H]1O[C@H](CC=NO[C@@H](C)c2cn([C@H](CO)Cc3ccccc3)nn2)C=C[C@@H]1OC(C)=O = -0.283
• CO[C@H]1COC(=O)CCC[C@H](C)[C@H](OC)COC(=O)CC=C[C@@H]1C = -1.3
• CO[C@@H]1COC(=O)[C@@H]2CCCN2C(=O)[C@@H](C)COC(=O)CCC[C@H]1C = -1.86
• CC(C)[C@@H](OCc1ccccc1)[C@H](C)C=NO[C@H](C)c1cn([C@@H]2COC[C@H]2O)nn1 = -1.02
• O=C1C2=CC[C@H]3C(=O)N(Cc4ccccc4)C(=O)[C@H]3[C@H]2[C@H](O)[C@@H]2O[C@H]12 = -0.733

###

assay: basal RPMI8226 mitochondrial membrane potential changes, profiling panel, cell-based, JC-1 fluorescence, 24 h, 100 nL compound (AID 1169); conditions: RPMI8226 myeloma, JC-1 mitochondrial potential fluorescence, higher = more signal; also: test concentration not given here
Class true (1): z-score at least -0.2. Class false (0): z-score below -0.2.

* CO[C@@H]1C=CCC(=O)N[C@@H](C)C(=O)OC[C@@H](NS(=O)(=O)c2ccc(C)cc2)[C@H](C)C=CCC(=O)OC[C@H]1C | false (0)
* COCCNC(=O)OCC1CCCC2(CC(OC(=O)NCc3cccc4ccccc34)CC(CCC(=O)N[C@@H](C)C(=O)OC)O2)O1 (stereo partly drawn) | true (1)
* CCOC(=O)[C@H](CC(C)C)NC(=O)CCC1CC(OC(=O)NCCc2ccc(F)cc2)CC2(CCCC(COC(=O)NCCCN3CCCC3=O)O2)O1 (stereo partly drawn) | false (0)
* CON=C(C)CCN1CCCc2nc(C)c(C)cc21 | true (1)
* O=C1[C@H]2[C@H]3[C@H](O)[C@H](O)CC(=NOCc4ccccc4)[C@H]3CC[C@H]2C(=O)N1C1CCCCC1 | true (1)
* CC=CC1=C(CO)[C@H](O)[C@H]2O[C@H]2[C@@H]1O | false (0)
* CCOC(=O)[C@H](CC(C)C)NC(=O)CCC1CC(OC(=O)NCCc2ccc(F)cc2)CC2(CCCC(COC(=O)NCc3cccc4ccccc34)O2)O1 (stereo partly drawn) | true (1)
* CCOC(=O)[C@H](Cc1ccccc1)NC(=O)CCC1CC(OC(=O)NCCc2ccc(F)cc2)CC2(CCCC(COC(=O)NCCOc3ccccc3)O2)O1 (stereo partly drawn) | false (0)

###

assay: osmotic lysis modulators in infected erythrocytes, primary screen, PSAC antagonist project, cell-based, P. falciparum Indochina, OD700, 3 h (AID 1156); conditions: higher = more signal, called active from +8 up or from −8 down
The source made the active and inactive calls.
valueKind: z-score

* CCOC(=O)[C@H](Cc1ccccc1)NC(=O)CCC1CC(OC(=O)NCCc2ccc(F)cc2)CC2(CCCC(COC(=O)NCCOc3ccccc3)O2)O1 (stereo partly drawn) | -0.619 (inactive)
* COc1ccc(OC[C@H]2CN3[C@@H](CC[C@@H](C)[C@@H]3c3ccc(Br)cc3)C(=O)O2)cc1 | 0.345 (inactive)
* CCOC(=O)[C@H](CC(C)C)NC(=O)CCC1CC(OC(=O)NCc2ccc3c(c2)OCO3)CC2(CCCC(COC(=O)NCCOc3ccccc3)O2)O1 (stereo partly drawn) | -0.118 (inactive)
* CO[C@@H]1COC(=O)[C@H](CCSC)NC(=O)CC=C[C@@H](C)COC(=O)[C@@H]2CCCN2C(=O)CC=C[C@H]1C | 0.537 (inactive)
* COC(=O)[C@@H]1CC[C@H](C)[C@@H](c2ccc(Br)cc2)N1 | -0.772 (inactive)
* O=C1C[C@H](c2ccccc2)[C@H](c2ccc(Br)cc2)O1 | -0.0291 (inactive)
* CON=C(C)CCN1CCCc2nc(C)c(C)cc21 | 0.619 (inactive)
* C[C@@H]1CC[C@H]2C(=O)O[C@@H](CN=[N+]=[N-])CN2[C@H]1c1ccc(Br)cc1 | 1.59 (inactive)

###

molecular target: Epidermal growth factor receptor (Homo sapiens); assay: EGFR binders on small-molecule microarrays, primary screen, biochemical, small-molecule microarray, 635 nm fluorescence (AID 1104); conditions: EGFR binding, higher = more signal;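 also: score merges 667 nm emission intensity with spot signal to noise over triplicate slides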
valueKind: composite z-score

* CCN1C(=O)[C@H]2[C@H]3[C@H](O)[C@H](O)CC(=NO[C@H](C)c4cn([C@@H]5COC[C@H]5O)nn4)[C@@H]3CC[C@H]2C1=O | 0.219
* O=C1C[C@@H](O)[C@@H](O)[C@@H]2[C@@H]3C(=O)N(Cc4ccccc4)C(=O)[C@@H]3CC[C@H]12 | 0.564
* COC(=O)[C@@H]1CC[C@H](C)[C@@H](c2ccc(Br)cc2)N1 | 0.377
* CCOC(=O)[C@H](Cc1ccccc1)NC(=O)CCC1CC(OC(=O)NCCc2ccc(F)cc2)CC2(CCCC(COC(=O)NCCC(C)C)O2)O1 (stereo partly drawn) | 0.396
* COC(=O)CC=C[C@@H](C)[C@@H](C=NOC(C)CN1CCCCc2nc(C)c(C)cc21)OC (stereo partly drawn) | 0.686
* CO[C@H]1COC(=O)CC=C[C@@H](C)COC(=O)[C@H]2CCCN2C(=O)CC=C[C@H]1C | 1.29
* CC(=O)OC[C@H]1O[C@H](CC=NOC(C)CN2CCCCc3nc(C)c(C)cc32)C=C[C@@H]1OC(C)=O (stereo partly drawn) | 1.59
* CCN1C(=O)[C@H]2[C@H]3[C@H](O)[C@H](O)CC(=NNC(=O)OCc4ccccc4)[C@@H]3CC[C@H]2C1=O | -0.241

###

target: Torsin-1A (Homo sapiens) (UniProt O14656); assay: small-molecule binders of mutant TOR1A in lysate, primary screen, cell lysate, small-molecule microarray, COS7 lysate, 635/667 nm fluorescence (AID 1150); settings: COS7 hTOR1A mutant lysate, 635 nm fluorescence, higher = more signal;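 also: score pools 667 nm emission and signal to noise measuring lysate protein binding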
Sequence (O14656 whole entry, looked up): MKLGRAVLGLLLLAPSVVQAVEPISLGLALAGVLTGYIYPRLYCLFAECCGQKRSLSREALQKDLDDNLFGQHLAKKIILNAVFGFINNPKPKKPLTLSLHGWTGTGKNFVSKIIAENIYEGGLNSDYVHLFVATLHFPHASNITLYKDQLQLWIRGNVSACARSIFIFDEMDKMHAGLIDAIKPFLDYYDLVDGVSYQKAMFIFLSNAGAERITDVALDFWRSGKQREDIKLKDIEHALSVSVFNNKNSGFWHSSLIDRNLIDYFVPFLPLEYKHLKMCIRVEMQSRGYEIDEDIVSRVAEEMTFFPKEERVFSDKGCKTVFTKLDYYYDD
Class Condition met: composite z-score at least 0.1. Class Condition not met: composite z-score below 0.1.

- COC(=O)CC=C[C@@H](C)[C@@H](C=NOC[C@@H](C)[C@H](OCc1ccccc1)C(C)C)OC: Condition not met
- CCN1C(=O)[C@H]2[C@H]3[C@H](O)[C@H](O)CC(=NOC[C@@H](O)COCc4ccco4)[C@H]3CC[C@H]2C1=O: Condition met
- CCOC(=O)CCN1C(=O)[C@H]2[C@H]3[C@H](O)[C@H](O)CC(=NOCC=C(C)CCC=C(C)C)[C@H]3CC[C@H]2C1=O: Condition met
- CCOC(=O)[C@H](CC(C)C)NC(=O)CCC1CC(OC(=O)NCCc2ccc(F)cc2)CC2(CCCC(COC(=O)NCc3cccc(C(F)(F)F)c3)O2)O1 (stereo not given in full): Condition met
- COc1ccc(COC(=O)NN=C2C[C@@H](O)[C@@H](O)[C@@H]3[C@@H]4C(=O)N(C[C@@H]5CCCO5)C(=O)[C@@H]4CC[C@H]23)cc1: Condition not met
- CCOC(=O)[C@H](Cc1ccccc1)NC(=O)CCC1CC(OC(=O)NCCc2ccc(F)cc2)CC2(CCCC(COC(=O)NCc3cccc(C(F)(F)F)c3)O2)O1 (stereo not given in full): Condition met
- CCc1cc2c(nc1CC)CCN(CCC(C)=NO[C@@H]1O[C@H](COC(C)=O)[C@@H](OC(C)=O)[C@H](OC(C)=O)[C@H]1OC(C)=O)C2: Condition met
- CC(C)CON=C1C[C@@H](O)[C@@H](O)[C@@H]2[C@@H]3C(=O)N(C(C)(C)C)C(=O)[C@@H]3CC[C@@H]12: Condition met
- CCCC[C@H]1CN2[C@@H](CC[C@@H](C)[C@@H]2c2ccc(Br)cc2)C(=O)O1: Condition met
- CON=C(C)CCN1CCc2nc(-c3ccccc3)c(-c3ccccc3)cc2C1: Condition not met
- C[C@@H]1CC[C@H]2C(=O)OC(Cc3ccccc3)CN2[C@H]1c1ccc(Br)cc1 (stereo not given in full): Condition not met
- COc1ccc(COC(=O)NN=C2C[C@@H](O)[C@@H](O)[C@@H]3[C@@H]4C(=O)N(C5CCCCC5)C(=O)[C@@H]4CC[C@@H]23)cc1: Condition met
- CC(C)=CCCC(C)=CCON=C1C[C@@H](O)[C@@H](O)[C@@H]2[C@@H]3C(=O)N([C@@H](C)c4ccccc4)C(=O)[C@@H]3CC[C@@H]12: Condition met
- CCOC(=O)[C@H](Cc1ccccc1)NC(=O)CCC1CC(OC(=O)NCCc2ccc(F)cc2)CC2(CCCC(COC(=O)NCCC(C)C)O2)O1 (stereo not given in full): Condition met
- CC(=O)OC[C@H]1O[C@H](CC=NOC(C)CN2CCCCc3nc(C)c(C)cc32)C=C[C@@H]1OC(C)=O (stereo not given in full): Condition met

src = PubChem BioAssay
